Origin of values: patent US20240182563A1

Target: T1, human CNTN4-10xHis (human, UniProt Q8IWV2 19-1000)
T1 sequence: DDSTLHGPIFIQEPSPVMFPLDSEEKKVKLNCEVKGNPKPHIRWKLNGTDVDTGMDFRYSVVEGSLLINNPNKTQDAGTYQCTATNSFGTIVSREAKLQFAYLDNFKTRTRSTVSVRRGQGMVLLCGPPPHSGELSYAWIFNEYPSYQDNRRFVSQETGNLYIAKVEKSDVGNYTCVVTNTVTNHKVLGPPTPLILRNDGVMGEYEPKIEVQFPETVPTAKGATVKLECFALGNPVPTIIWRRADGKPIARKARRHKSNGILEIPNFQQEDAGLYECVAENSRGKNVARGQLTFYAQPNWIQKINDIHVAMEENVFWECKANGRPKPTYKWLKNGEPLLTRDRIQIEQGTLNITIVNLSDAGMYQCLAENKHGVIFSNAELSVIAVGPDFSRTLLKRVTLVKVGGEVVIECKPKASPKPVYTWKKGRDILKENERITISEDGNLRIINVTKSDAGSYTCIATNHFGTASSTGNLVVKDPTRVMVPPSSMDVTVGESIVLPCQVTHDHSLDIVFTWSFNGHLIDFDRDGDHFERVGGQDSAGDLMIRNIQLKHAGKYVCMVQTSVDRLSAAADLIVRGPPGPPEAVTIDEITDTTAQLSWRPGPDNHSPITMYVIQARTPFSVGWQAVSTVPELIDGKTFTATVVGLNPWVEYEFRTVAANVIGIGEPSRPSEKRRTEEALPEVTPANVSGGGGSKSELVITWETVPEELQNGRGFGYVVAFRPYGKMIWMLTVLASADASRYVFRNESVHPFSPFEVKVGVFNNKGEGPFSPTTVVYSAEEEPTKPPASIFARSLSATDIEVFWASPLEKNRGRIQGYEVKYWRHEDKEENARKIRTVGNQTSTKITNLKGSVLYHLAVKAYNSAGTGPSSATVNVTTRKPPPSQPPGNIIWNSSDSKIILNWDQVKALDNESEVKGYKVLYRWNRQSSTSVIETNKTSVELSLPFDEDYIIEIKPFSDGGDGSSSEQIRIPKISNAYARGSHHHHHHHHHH
Test: ELISA, plate coated with CNTN4-10xHis, anti-human Fc-HRP
What EC50 was measured for each of the following?
Answers are plain numbers, in nM.

Before answering, review these 3 worked examples.
[[record]]
binder = "anti-CNTN4 humanized antibody L1H2 (antibody, V domains shown, in the form of IgG4) VH: EVQLLESEGGLVQPGGSLRLSCAASGFTFSSFNMFWVRQAPGKGLEWVAEISGGGGSTWYAPAVKGRATISRDNSKNTVYLQMNSLRAEDTAVYYCAKSADTWSYGAATIDAWGQGTLVTVSS VL: ELTQDPAVSVALGQTVRITCSGSSGSYGWYQQKPGQAPVLVIYDNTNRPSGIPDRFSGSSSGNTASLTITGAQAEDEADYYCGGYDGSTDVFGGGTKLTVL"
experimental_readout = "EC50"
readout_value = 0.028

[[record]]
binder = "anti-CNTN4 humanized antibody LAH2 (antibody, V domains shown, in the form of IgG4) VH: EVQLLESEGGLVQPGGSLRLSCAASGFTFSSFNMFWVRQAPGKGLEWVAEISGGGGSTWYAPAVKGRATISRDNSKNTVYLQMNSLRAEDTAVYYCAKSADTWSYGAATIDAWGQGTLVTVSS VL: ALTQPSSVSANLGETVKITCSGSSGSYGWYQQKSPGSAPVTLIYDNTNRPSDIPSRFSGSGSGSTGTLTITGVRAEDEAVYYCGGYDGSTDVFGAGTTLTVL"
experimental_readout = "EC50"
readout_value = 0.017

[[record]]
binder = "anti-CNTN4 humanized antibody L2H2 (antibody, V domains shown, in the form of IgG4) VH: EVQLLESEGGLVQPGGSLRLSCAASGFTFSSFNMFWVRQAPGKGLEWVAEISGGGGSTWYAPAVKGRATISRDNSKNTVYLQMNSLRAEDTAVYYCAKSADTWSYGAATIDAWGQGTLVTVSS VL: ELTQDPAVSVALGQTVRITCSGSSGSYGWYQQKPGQAPVTLIYDNTNRPSGIPDRFSGSSSGSTGSLTITGAQAEDEADYYCGGYDGSTDVFGGGTKLTVL"
experimental_readout = "EC50"
readout_value = 0.018


Switching to the query record.
// fetch EC50 given entry anti-CNTN4 129 chimeric IgG4-S228P (antibody, V domains shown, chicken-human chimeric IgG4-S228P made from S129, kappa light chain constant region (Kappa select); also called A-01; LAHA) VH: AVTLDESEGGLQTPGGALSLVCKASGFTFSSFNMFWVRQAPGKGLEYVAEISGGGGSTWYAPAVKGRATISRDNGQSTVRLQLNNLRAEDTGTYYCAKSADTWSYGAATIDAWGHGTEVIVSS VL: ALTQPSSVSANLGETVKITCSGSSGSYGWYQQKSPGSAPVTLIYDNTNRPSDIPSRFSGSGSGSTGTLTITGVRAEDEAVYYCGGYDGSTDVFGAGTTLTVL
0.011
